Would you kindly list activity, negative = inhibition for each of these compounds?
molecular target: Cytochrome P450 2C9 (Homo sapiens) (UniProt P11712); experiment: Cytochrome panel assay with activity outcomes; details: recombinant CYP, pro-luciferin dealkylation, luminescence, p450-cyp2c9; series mostly up to 57.1 µM; on activity, negative = inhibition: on the % scale 0 is the no-effect control and ±100 the full control effect
Sequence (P11712 whole entry, looked up): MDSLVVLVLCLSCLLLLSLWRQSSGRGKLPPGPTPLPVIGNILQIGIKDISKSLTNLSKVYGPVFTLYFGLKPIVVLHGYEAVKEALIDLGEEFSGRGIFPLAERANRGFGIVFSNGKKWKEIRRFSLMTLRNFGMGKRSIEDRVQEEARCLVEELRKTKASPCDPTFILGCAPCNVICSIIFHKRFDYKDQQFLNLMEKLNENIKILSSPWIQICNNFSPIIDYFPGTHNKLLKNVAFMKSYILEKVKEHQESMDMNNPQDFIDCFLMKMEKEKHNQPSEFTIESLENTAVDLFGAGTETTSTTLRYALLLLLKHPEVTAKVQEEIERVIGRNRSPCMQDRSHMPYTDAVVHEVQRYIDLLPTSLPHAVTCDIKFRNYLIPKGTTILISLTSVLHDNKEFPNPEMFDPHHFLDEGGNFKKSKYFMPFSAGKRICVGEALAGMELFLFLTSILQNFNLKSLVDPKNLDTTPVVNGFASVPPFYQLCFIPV
About 4,000 (25%) of roughly 16,000 compounds were called active. About 26% were inconclusive and are not listed. Only a sample is shown.

c1nc(NCCN2CCOCC2)c2cc(-c3ccoc3)ccc2n1	-2.85% [at 2.29 µM] (inactive)
Cc1ccc(S(=O)(=O)NC(=O)Nc2ncn[nH]2)cc1	4.99% [at 11.4 µM] (inactive)
Cc1noc(C)c1-c1cncnc1N1CCN(C)CC1	15.2% [at 2.29 µM] (inactive)
CC(C)Cn1cnc2c(Sc3c([N+](=O)[O-])ncn3C)nc(N)nc21	29.4% [at 11.4 µM] (inactive)
Cc1noc(C)c1-c1nc(Nc2ccc(F)cc2)c2ccccc2n1	-2.69% [at 2.29 µM] (inactive)
Nc1nc(=O)c2[nH]cnc2n1O	-5.05% [at 11.4 µM] (inactive)
Clc1ccccc1C(Nc1cnccn1)Nc1cnccn1	1.92% [at 11.4 µM] (inactive)
CC(C)N1CCN(c2ccncc2S(=O)(=O)N2CCCCC2)CC1	-8.32% [at 11.4 µM] (inactive)

Respectfully, I request activity, negative = inhibition for each entry included below.
1. c1cncc(-c2cc(-c3cc(-c4cccnc4)n[nH]3)[nH]n2)c1
2. O=C(O)[C@H]([C@H]1NCCS1)N1Cc2ccccc2C1
3. Cc1cc(=Nc2ccc3c(c2)c(N)cc(C)[n+]3C)nc(N)n1C

Outgoing:
1: 8.46% [at 11.4 µM] (inactive); 2: 1.08% [at 11.4 µM] (inactive); 3: 13% [at 11.4 µM] (inactive)

Incoming: Using the record for N=C1CCC[C@@H]1C(=S)SCCC(N)=O , report its activity, negative = inhibition.
Outgoing: 17.6% [at 11.4 µM] (inactive)

====

target: Cytochrome P450 2C9 (Homo sapiens); assay: Cytochrome panel assay with activity outcomes; conditions: recombinant CYP, pro-luciferin dealkylation, luminescence, p450-cyp2c9; series mostly up to 57.1 µM
Out of some 16,000 compounds screened, about 4,000 (25%) were called active. Inconclusive results (about 26%) are left out. The call rests on the fitted dose curve; in most records, active means well fitted curve in the direction sought with a large enough effect; inconclusive means small, poorly fitted or top-dose-only effect, or effect the other way; inactive means no such curve, though single readings can be large or run the other way. The list is a sample of the results.
Reply using exactly one outcome from YES (active), NO (inactive)

Solved entries:
CN1CCN(c2ncc3ncc(=O)n(CCc4ccccc4)c3n2)CC1	NO
O=C1C=C(NCC2CCCO2)C2(CCCCC2)O1 (centres undefined)	NO
O=C(O)[C@H]1CN(CCCP(=O)(O)O)CCN1	NO
CC(=O)c1cc(CC=C(C)C)c(O)cc1O	YES
O=C(NC(NCc1ccccc1)C(Cl)(Cl)Cl)c1cccnc1 (centres undefined)	YES

Incoming: Kindly provide the recorded test outcome for the following compound: CCCCC(=O)NC(Nc1cc(C)ccn1)(C(=O)OCC)C(F)(F)F (centres undefined)
Outgoing: YES

Incoming: Kindly provide the recorded test outcome for the following compound: Cc1ccc(S(=O)(=O)Nc2nc3ccccc3nc2N2CCc3ccccc3C2)cc1
Outgoing: YES

====

target: Cytochrome P450 2C9 (Homo sapiens) (UniProt P11712); experiment: Cytochrome panel assay with activity outcomes; conditions: recombinant CYP, pro-luciferin dealkylation, luminescence, p450-cyp2c9; series mostly up to 57.1 µM
About 4,000 (25%) of roughly 16,000 compounds were called active. Another 26% or so got no clear call; they are omitted. Calls follow the shape of the dose curve; as a rule, active = well fitted curve in the direction sought with a large enough effect; inconclusive = small, poorly fitted or top-dose-only effect, or effect the other way; inactive = no such curve, though single readings can be large or run the other way. A selection follows.
Reply using exactly one outcome from active, inactive

CCCCCn1c(CN2CCN(c3cc(Cl)ccc3C)CC2)nc2c1c(=O)[nH]c(=O)n2C	active
CSc1nc2ccccc2cc1/C=C(\C#N)c1ccc(Cl)cc1Cl	active

Incoming: Kindly provide the recorded test outcome for the following molecule: COc1cccc(Cn2c(NCc3cccnc3)nc3c2c(=O)n(C)c(=O)n3C)c1
Outgoing: active

Incoming: Kindly provide the recorded test outcome for the following molecule: C[C@@H](CCc1ccccc1)NC[C@H](O)c1ccc(O)c(C(N)=O)c1
Outgoing: inactive

Incoming: Kindly provide the recorded test outcome for the following molecule: O=C(O)/C=C\C(=O)NCc1ccccc1
Outgoing: inactive

Incoming: Kindly provide the recorded test outcome for the following molecule: OC[C@H]1NC[C@@H](O)[C@@H](O)[C@H]1O
Outgoing: inactive

Incoming: Kindly provide the recorded test outcome for the following molecule: CCOc1ccc(OCC)c(-c2c(=O)n(OCc3ccccc3C(=O)OC)c3ccccc3[n+]2[O-])c1
Outgoing: active

Incoming: Kindly provide the recorded test outcome for the following molecule: CCN(c1ccccc1)c1cc(NC)[n+](C)c(C)n1
Outgoing: inactive

Incoming: Kindly provide the recorded test outcome for the following molecule: Cc1ccc(S(=O)(=O)NC(=O)c2cccn2C)cc1
Outgoing: active

Incoming: Kindly provide the recorded test outcome for the following molecule: CN(C)CC[C@H](c1ccc(Br)cc1)c1ccccn1
Outgoing: inactive

Incoming: Kindly provide the recorded test outcome for the following molecule: COc1cc2ccc(=O)oc2cc1O
Outgoing: inactive

Incoming: Kindly provide the recorded test outcome for the following molecule: O=S(=O)(N/N=C\C=C\c1ccccc1)c1ccc(Br)cc1
Outgoing: active

Incoming: Kindly provide the recorded test outcome for the following molecule: CCCC1(C(=O)OC)C=C2C(=C(c3ccccc3)C(=O)C2C)CN1 (stereo not drawn)
Outgoing: active

Incoming: Kindly provide the recorded test outcome for the following molecule: CC(=O)Nc1ccccc1C(=O)C(=O)O
Outgoing: inactive

Incoming: Kindly provide the recorded test outcome for the following molecule: O=C(Cn1c(C(F)(F)F)nc2ccccc21)c1ccc(F)cc1
Outgoing: active

Incoming: Kindly provide the recorded test outcome for the following molecule: CCOc1ccc(OCC)c(-c2c(=O)n(OCc3ccc(C(C)(C)C)cc3)c3ccccc3[n+]2[O-])c1
Outgoing: active

Incoming: Kindly provide the recorded test outcome for the following molecule: CSc1nc2ccccc2cc1/C=C(\C#N)c1ccccc1
Outgoing: active

Incoming: Kindly provide the recorded test outcome for the following molecule: Cc1ccc(S(=O)(=O)NC(=O)NN2C[C@H]3CCC[C@@H]3C2)cc1
Outgoing: inactive

Incoming: Kindly provide the recorded test outcome for the following molecule: O=C(c1cc(C(F)(F)F)cc(C(F)(F)F)c1)N1CCC2(CC1)CN(c1ccncc1)C2
Outgoing: active

Incoming: Kindly provide the recorded test outcome for the following molecule: O=C(c1cc(C(F)(F)F)cc(C(F)(F)F)c1)N1CCC2(CC1)CN(c1ccccc1)C2
Outgoing: inactive

From: PubChem BioAssay AID1851
